- PROTOCOL_TEXT: Human plasma half-life assay
- Assay type: in vitro ADME
- SETUP_CONDITIONS: human plasma, 37° C., LC-MS; read-out: Human Plasma T½ (converted)
*1 amine or outer side, *2 acyl side, *3 side chain or, on linkers, in order; H or OH if unused. Where no end group is shown, it is not given here. [ ]: non-standard residue; d: D form. X2 = O=C([C@@H]1CC(O)CN1[*:1])[*:2]; Tic = O=C(O)[C@@H]1Cc2ccccc2CN1; Ac5c = NC1(C(=O)O)CCCC1; Aib = CC(C)(N)C(=O)O
QUANTITY_KIND: half-life at 0.1 mg/ml (min)
# number only, unit min dropped from output

As a guide, the following entries are already answered.
# SUBSTANCE, half-life at 0.1 mg/ml / min
records = [
    ("Y[Aib]EGTFISDY[Ac5c]IAMDKIHQQDFVNWLLAQKGKKNDWKHNITQ-OH [Example 53, (Aib^2, A5c^11)hGIP(1-42)-OH]", 2000),
    ("Y[Aib]EGTFIS[Aib]YSIAMDKIHQQDFVNWLLAQKGKKNDWKHNITQ-OH [Example 2, (Aib^2, 9)hGIP(1-42)-OH]", 564),
    ("YA[Tic]GTFISDYSI[Aib]MDKIHQQDFVNWLLAQKGKKNDWKHNITQ [Example 66, (Tic^3, Aib^13)hGIP(1-42)-OH]", 1150),
]

Let's switch to this substance now.
Item H-YA[X2]GTFISDY[Ac5c]IAMDKIHQQDFVNWLLAQKGKKNDWKHNITQ-OH [Example 87, (4Hyp^3, A5c^11)hGIP(1-42)-OH] has what recorded half-life at 0.1 mg/ml?
2320

###

- PROTOCOL_TEXT: Rat plasma half-life assay
- Type: in vitro ADME
- SETUP_CONDITIONS: rat plasma, 37° C., LC-MS; read-out: Rat Plasma T½ (converted)
*1 amine or outer side, *2 acyl side, *3 side chain or, on linkers, in order; H or OH if unused. Where no end group is shown, it is not given here. [ ]: non-standard residue; d: D form. The star is where a group is joined. X2 = O=C([C@@H]1CC(O)CN1[*:1])[*:2]; Ac6c = NC1(C(=O)O)CCCCC1; Nle = CCCC[C@H](N)C(=O)O; X1 = CCCN1C(=O)CC(*)C1=O; Ac5c = NC1(C(=O)O)CCCC1; Aib = CC(C)(N)C(=O)O
Recorded half-life at 0.1 mg/ml for the following substances
# number only, unit h dropped from output

# SUBSTANCE, UNIT, half-life at 0.1 mg/ml
measured = [
    ("YA[X2]GTFISDYSI[Aib]MDKIHQQDFVNWLLAQKGKKNDWKHNITQ [Example 67, (4Hyp^3, Aib^13)hGIP(1-42)-OH]", "h", 1.6),
    ("Y[Aib]EGTF[Ac5c]SDYSIA[Nle]DKIHQQDFVNWLLAQKGKKNDWKHNITQ-OH [Example 58, (Aib^2, A5c^7, Nle^14)hGIP(1-42)-OH]", "h", 16.7),
    ("Y[Aib]EGTFISDY[Aib]IA[Ac6c]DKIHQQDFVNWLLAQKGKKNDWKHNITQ-OH [Example 41, (Aib^2, 11, A6c^14)hGIP(1-42)-OH]", "h", 13.3),
    ("Y[Aib]EGTF[Ac6c]SDYSIAMDKIHQQDFVNWLLAQKGKKNDWKHC(X1)ITQ-OH [Example 79, [Aib^2, A6c^7, Cys(Psu)^39]hGIP(1-42)-OH]", "h", 14.3),
    ("Y[Aib]EGTFIS[Aib]YSIAMDKIHQQDFVNWLLAQKGKKNDWKHNITQ-OH [Example 2, (Aib^2, 9)hGIP(1-42)-OH]", "h", 5.6),
]

Item Y[Aib]EGTF[Ac5c]SDYSIA[Ac5c]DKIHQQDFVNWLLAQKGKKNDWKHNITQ-OH [Example 59, (Aib^2, A5c^7, 14)hGIP(1-42)-OH] has what recorded half-life at 0.1 mg/ml?
13.1

Item Y[Aib]EGTF[Ac6c]SDYSIA[Nle]DK[Ac6c]HQQDFVNWLLAQKGKKNDWKHNITQ-OH [Example 37, (Aib^2, A6c^7, 17, Nle^14)hGIP(1-42)-OH] has what recorded half-life at 0.1 mg/ml?
14

Item Y[Aib]EG[Aib]FISDYSIAMDKIHQQDFVNWLLAQKGKKNDWKHNITQ-OH [Example 4, (Aib^2, 5)hGIP(1-42)-OH] has what recorded half-life at 0.1 mg/ml?
4.8

Item Y[Aib]EGTF[Ac5c]SDYSIAMDKIHQQDFVNWLLAQKGKKNDWKHNITQ-OH [Example 6, (Aib^2, A5c^7)hGIP(1-42)-OH] has what recorded half-life at 0.1 mg/ml?
8.6

Item Y[Aib]EGTF[Ac6c]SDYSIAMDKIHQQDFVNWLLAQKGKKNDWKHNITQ-OH [Example 43, (Aib^2, A6c^7)hGIP(1-42)-OH] has what recorded half-life at 0.1 mg/ml?
7.7

Item Y[Aib]EGTF[Ac6c]SDYSIAMDKIHQQDFVNWLLAQKC(X1)KKNDWKHNITQ-OH [Example 90, [Aib^2, A6c^7, Cys(Psu)^31]hGIP(1-42)-OH] has what recorded half-life at 0.1 mg/ml?
4.8

Item Y[Aib]EGTFISDYS[Aib]AMDKIHQQDFVNWLLAQKGKKNDWKHNITQ-OH [Example 8, (Aib^2, 12)hGIP(1-42)-OH] has what recorded half-life at 0.1 mg/ml?
4.5

All figures here come from patent US9074014B2.
